Give growth inhibition for every item shown.
- ASSAY NAME: NCI Yeast Anticancer Drug Screen. Data for the rad50 strain (AID 155);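 also: 0% = growth of vehicle-only cultures of the same strain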
- APPLIED CONDITIONS: S. cerevisiae rad50 strain growth inhibition; at 50.0 µM (retest, dose inferred, filed as 5.0); active compounds read high
Compounds without any hit were thinned out: in the full panel of roughly 79,000, 15% have a hit.
# value in %; strip the unit string

// field: growth inhibition; key: CCCC12C=C(OC)C(=O)C=C1OC(c1ccc3c(c1)OCO3)C2C (stereo not given) ; value = 55

// field: growth inhibition; key: CN(c1ccc(C(N)=O)cc1)c1c(O)c2ccccc2[nH]c1=O ; value = 58

// field: growth inhibition; key: CN(C)c1ccc(/C=N/N=C(/C#N)[S][Sn]([S]/C(C#N)=N/N=C/c2ccc(N(C)C)cc2)([c]2ccccc2)[c]2ccccc2)cc1 ; value = 95

// field: growth inhibition; key: Cn1c2ccccc2c2cc3cnccc3cc21 ; value = 95

// field: growth inhibition; key: O=C1N=c2ccc(Br)cc2=C1c1sc(=O)n(Cc2nc3ccccc3[nH]2)c1O ; value = -8

// field: growth inhibition; key: Oc1[nH]c2ccccc2c1N=NC(=S)N1CCCCCC1 ; value = 98

// field: growth inhibition; key: Cc1ccc(OC/C=C/c2cccc(C#N)c2)cc1 ; value = 2

// field: growth inhibition; key: CCCCCCCCCCCCN(CCO)CCO ; value = 95

// field: growth inhibition; key: Clc1cc2c(c3ncccc13)OCN(CCc1ccccc1)C2 ; value = 8

// field: growth inhibition; key: CCCCCCCCCCOC(=O)c1cc[n+](C)cc1 ; value = -5

// field: growth inhibition; key: COc1ccccc1C(=O)c1ccc2ccccc2c1 ; value = 71

// field: growth inhibition; key: CC(C)(C)c1cc(C(c2cc3c(cc2O)OCO3)N2CCOCC2)cc(C(C)(C)C)c1O (stereo not given) ; value = 95

// field: growth inhibition; key: CC(C)CCSc1ncnc2nc[nH]c12 ; value = 6

// field: growth inhibition; key: Oc1ccccc1C(=NNc1ccccc1)c1ccccc1O ; value = 96

// field: growth inhibition; key: CCCCCCCC/C=C\CCCCCCCC(=O)NCCN(C)C ; value = 99

// field: growth inhibition; key: O=c1oc(-c2ccc(Cl)c([N+](=O)[O-])c2)ns1 ; value = 92

// field: growth inhibition; key: Nc1ccc(S(=O)(=O)Nc2nc3ccccc3nc2N2CCCCC2)cc1 ; value = 46

// field: growth inhibition; key: Nc1ccccc1O ; value = 58

// field: growth inhibition; key: CC(C)(C)N=C=NC(c1ccccc1)(c1ccccc1)c1ccccc1 ; value = -21

// field: growth inhibition; key: Clc1ccc(SSc2ccc(Cl)cn2)nc1 ; value = 69

// field: growth inhibition; key: O=C(OCC1OC(OCC(OC(=O)c2ccccc2)C(OC(=O)c2ccccc2)C(OC(=O)c2ccccc2)c2cnn(-c3ccccc3)n2)C(OC(=O)c2ccccc2)C(OC(=O)c2ccccc2)C1OC(=O)c1ccccc1)c1ccccc1 (stereo not given) ; value = -1

// field: growth inhibition; key: Cc1c2cc[n+](C)cc2c(C)c2c1[nH]c1ccc(Cl)cc12 ; value = 97

// field: growth inhibition; key: COc1ccc(Cc2ccc3c(C)cc(Cl)nc3c2)cc1 ; value = 74

// field: growth inhibition; key: O=C(Nc1ccc(Cl)cc1)OCC1C2C=CC(C2)C1CO (stereo not given) ; value = 95

// field: growth inhibition; key: CCCC/C=C1\CCC(CN2CCOCC2)C1=O (stereo not given) ; value = 100
